# experimental_system: human CB1 receptor (Homo sapiens)
# Sequence (P21554 whole entry): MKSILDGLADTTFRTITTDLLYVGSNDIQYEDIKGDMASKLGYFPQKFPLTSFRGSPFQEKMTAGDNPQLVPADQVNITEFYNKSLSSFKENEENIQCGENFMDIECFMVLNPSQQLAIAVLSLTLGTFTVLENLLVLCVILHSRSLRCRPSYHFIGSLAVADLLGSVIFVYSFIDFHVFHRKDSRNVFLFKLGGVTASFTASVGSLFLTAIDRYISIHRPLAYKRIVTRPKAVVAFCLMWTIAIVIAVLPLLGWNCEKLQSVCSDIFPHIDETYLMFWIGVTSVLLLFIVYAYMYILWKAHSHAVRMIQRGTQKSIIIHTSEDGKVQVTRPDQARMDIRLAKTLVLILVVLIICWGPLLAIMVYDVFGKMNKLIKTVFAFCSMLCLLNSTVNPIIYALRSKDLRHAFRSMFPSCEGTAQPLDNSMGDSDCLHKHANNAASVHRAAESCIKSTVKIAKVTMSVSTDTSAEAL
# procedure_summary: PathHunter β-Arrestin functional assay, CB1 receptor, agonist mode
value_kind: EC50

## Task Can you look up the measured EC50 of CCCCCc1cc2c(c3c1C(=O)OC(C)O3)[C@@H]1C=C(C)CC[C@H]1C(C)(C)O2 (stereo partly shown) [Compound 16b] for me?
## Result ~252 nM
